Conditions: in methanol, 283.15 K
Readout Label: solubility (mole fraction)
Give only the figure.

Return the recorded solubility (mole fraction) value; entry: Cc1cccc(C(=O)O)c1N 0.0235

----------
Conditions: in cyclohexane, 283.15 K
Readout Label: solubility (mole fraction)
Give only the figure.

Return the recorded solubility (mole fraction) value; entry: Cc1cccc(C(=O)O)c1N 8.89e-05

----------
Details: in isopropanol, 288.15 K
Readout Label: solubility (mole fraction)
Give only the figure.

Return the recorded solubility (mole fraction) value; entry: Cc1cccc(C(=O)O)c1N 0.0138

----------
Settings: in ethyl acetate, 308.15 K
Readout Label: solubility (mole fraction)
Give only the figure.

Return the recorded solubility (mole fraction) value; entry: Cc1cccc(C(=O)O)c1N 0.0704

This collection of values is drawn from BigSolDB 2.1.
